# system-tested: Gonadotropin-releasing hormone receptor (Homo sapiens)
# assay-explanation: Human gonadotropin-releasing hormone receptor (GnRHR) small molecule agonists, calcium flux assay in GnRHR-HEK293 cells (AID 1920063); note: % is set by controls: 0 for no effect and ±100 for the full control effect; nearly all actives have a fitted effect of over 35% in size
# condition-context: calcium flux fluorescence, agonist mode; series mostly up to 57.6 µM
Activity calls are given as the source filed them. Calls come from the whole dose curve.
assay-endpoint: activity change

[
  {
    "compound": "Nc1c2c(nc3ccccc13)CCCC2O (stereo not given)",
    "system-tested": "Gonadotropin-releasing hormone receptor (Homo sapiens)",
    "assay-endpoint": "activity change",
    "value-observed": "inactive"
  },
  {
    "compound": "COc1cc2c(N3CCN(C(=O)Nc4ccc(OC(C)C)cc4)CC3)ncnc2cc1OCCCN1CCCCC1",
    "system-tested": "Gonadotropin-releasing hormone receptor (Homo sapiens)",
    "assay-endpoint": "activity change",
    "value-observed": "inactive"
  },
  {
    "compound": "COC(=O)CCCCC(CCSS/C(CCO)=C(\\C)N(C=O)Cc1cnc(C)nc1N)SC(C)=O (stereo not given)",
    "system-tested": "Gonadotropin-releasing hormone receptor (Homo sapiens)",
    "assay-endpoint": "activity change",
    "value-observed": "inactive"
  },
  {
    "compound": "O=C(NC(Cc1cc(=O)[nH]c2ccccc12)C(=O)O)c1ccc(Cl)cc1 (stereo not given)",
    "system-tested": "Gonadotropin-releasing hormone receptor (Homo sapiens)",
    "assay-endpoint": "activity change",
    "value-observed": "inactive"
  }
]

// field: activity change; key: `NS(=O)(=O)c1cc(-c2nn[nH]n2)c(NCc2cccs2)cc1Cl` ; value = inactive

###

# system-tested: Muscarinic acetylcholine receptor M1 (Homo sapiens) (UniProt P11229)
# Sequence (P11229 whole entry, looked up): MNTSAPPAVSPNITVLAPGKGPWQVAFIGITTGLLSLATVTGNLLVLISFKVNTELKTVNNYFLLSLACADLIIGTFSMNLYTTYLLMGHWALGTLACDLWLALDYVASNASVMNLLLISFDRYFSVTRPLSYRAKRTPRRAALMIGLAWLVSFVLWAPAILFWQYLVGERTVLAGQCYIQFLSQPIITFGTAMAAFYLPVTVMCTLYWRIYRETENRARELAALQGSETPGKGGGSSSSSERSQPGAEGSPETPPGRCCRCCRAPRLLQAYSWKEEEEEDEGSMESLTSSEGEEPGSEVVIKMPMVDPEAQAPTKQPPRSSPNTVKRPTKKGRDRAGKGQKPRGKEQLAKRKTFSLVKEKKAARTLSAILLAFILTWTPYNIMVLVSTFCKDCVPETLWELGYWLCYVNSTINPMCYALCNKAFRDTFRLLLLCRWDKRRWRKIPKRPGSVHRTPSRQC
# assay-explanation: Cholinergic receptor muscarinic 1 (CHRM1) small molecule antagonists, cell-based qHTS assay (AID 1963588); note: % is set by controls: 0 for no effect and ±100 for the full control effect; nearly all actives have a fitted effect of over 40% in size
# condition-context: CHRM1-CHO antagonist mode, calcium flux fluorescence; series mostly up to 61.5 µM
Results filed as inconclusive are left out. Calls of active or inactive are those of the source. Calls follow the shape of the full dose curve.
Response enum: active, inactive

[
  {
    "compound": "CC(C)(C)C(=O)NCCCC(=O)O",
    "system-tested": "Muscarinic acetylcholine receptor M1 (Homo sapiens) (UniProt P11229)",
    "group": "inactive"
  },
  {
    "compound": "CN(C)CCOCCN(C)CCO",
    "system-tested": "Muscarinic acetylcholine receptor M1 (Homo sapiens) (UniProt P11229)",
    "group": "inactive"
  },
  {
    "compound": "C/C=C(\\C)C(=O)OCCC(C)CCC=C(C)C (centres undefined)",
    "system-tested": "Muscarinic acetylcholine receptor M1 (Homo sapiens) (UniProt P11229)",
    "group": "inactive"
  }
]

Recorded test outcome, item `CC(C)(O)c1ccccc1`
inactive

Recorded test outcome, item CC(C)NCC(O)COc1ccc(COCCOC(C)C)cc1 (centres undefined)
inactive

Recorded test outcome, item `CC(=O)Oc1ccc(C2(c3ccc(OC(C)=O)cc3)C(=O)Nc3ccccc32)cc1`
inactive

Recorded test outcome, item `Clc1cc(Cl)c(-c2c(Cl)c(Cl)cc(Cl)c2Cl)cc1Cl`
inactive

###

# assay-explanation: Nuclear factor erythroid 2-related factor 2/antioxidant responsive element (Nrf2/ARE) small molecule agonists: luciferase reporter gene qHTS assay in human keratinocytes (AID 1919969); note: nearly all actives have a fitted effect of over 35% in size
# condition-context: KeratinoSens HaCaT ARE-luciferase, luminescence, 24 h; series mostly up to 92.4 µM
Records with an inconclusive call do not appear. Calls of active or inactive are those of the source. Calls come from the whole dose curve.
Response enum: active, inactive

Before answering, review these 5 worked examples.
[
  {
    "molecule": "CCc1ccc(O)c(OC)c1",
    "group": "inactive"
  },
  {
    "molecule": "CCOC(=O)CC",
    "group": "inactive"
  },
  {
    "molecule": "CN1CCN(C2=Nc3ccccc3Sc3ccc(Cl)cc32)CC1",
    "group": "inactive"
  },
  {
    "molecule": "O=C(O)c1cc(Cl)cc([N+](=O)[O-])c1Cl",
    "group": "inactive"
  },
  {
    "molecule": "O=C=Nc1cccc(C(F)(F)F)c1",
    "group": "inactive"
  }
]

Recorded test outcome, item `CC1(C)OC(=O)Nc2ccc(Br)cc21`
inactive

Recorded test outcome, item `CCCCCCCCCCCSCC(=O)O`
inactive

Recorded test outcome, item `Nc1[nH]c(=O)ncc1F`
inactive

Recorded test outcome, item `C=C(C)C(=O)OCCCCCCCCCCOC(=O)C(=C)C`
inactive

Recorded test outcome, item `Cc1ccc2oc(CN(Cc3ccccc3)C(=O)Nc3c(F)cc(F)cc3F)c(-c3ccc(Cl)cc3)c2c1`
inactive

Recorded test outcome, item `CCOC(=N)CC(=O)OCC`
inactive

Recorded test outcome, item `CCOC(=O)[C@H](CCc1ccccc1)N[C@@H](C)C(=O)N1[C@H](C(=O)O)C[C@@H]2CCC[C@@H]21`
inactive

Recorded test outcome, item `O=C(O)c1cc(O)c2c(c1)C(=O)c1cccc(O)c1C2=O`
inactive

Recorded test outcome, item `O=c1cccccc1O`
active

Recorded test outcome, item CCn1cc(C(=O)O)c(=O)c2cc(F)c(N3CCNC(C)C3)c(F)c21 (configuration not stated)
inactive

Recorded test outcome, item CCN1CCCC1CN (configuration not stated)
inactive

Recorded test outcome, item `Nc1cccc2c(=O)[nH][nH]c(=O)c12`
inactive

Recorded test outcome, item `CNc1ccc(O)cc1`
active

Recorded test outcome, item `COc1cc(-c2nc(NC(=O)c3cc4cc(C)cc(C)c4n3CC(=O)O)sc2CCC2CCCCC2)c(OC)cc1Cl`
active

Recorded test outcome, item `CN1C(=O)c2ccc([N+](=O)[O-])cc2C1=O`
inactive

Recorded test outcome, item `Cc1cc(=O)[nH]c(=O)[nH]1`
inactive

Recorded test outcome, item `CCCc1nn(C)c2c(=O)[nH]c(-c3cc(S(=O)(=O)N4CCN(C)CC4)ccc3OCC)nc12`
inactive

Recorded test outcome, item `CC(C)CCOC(=O)CC(C)C`
inactive

Recorded test outcome, item `OCCN(CCO)c1cccc(Cl)c1`
inactive

###

# assay-explanation: cAMP Responsive Elements (CRE) small molecule antagonists, cell-based qHTS assay (AID 1963591); note: % is set by controls: 0 for no effect and ±100 for the full control effect
# condition-context: CRE-bla HEK293T, beta-lactamase FRET ratio; series mostly up to 92.4 µM
Records with an inconclusive call do not appear. Calls of active or inactive are those of the source. Calls come from the whole dose curve; as a rule, active = well fitted inhibition curve with a large enough effect in the signal ratio in the repeat runs (not every such curve was filed as active); inconclusive = weak or mixed curves, or effect the other way; inactive = flat fitted curve, though single readings scatter; the % refers to the signal ratio.
assay-endpoint: activity change, negative = inhibition

Example results:
[
  {
    "molecule": "CCN(CCC#N)c1ccc(N=Nc2ccc([N+](=O)[O-])cc2)cc1",
    "assay-endpoint": "activity change, negative = inhibition",
    "value-observed": "inactive"
  },
  {
    "molecule": "CCCCCC(=O)OCC",
    "assay-endpoint": "activity change, negative = inhibition",
    "value-observed": "inactive"
  },
  {
    "molecule": "Cc1cccc(C)c1NC(=O)c1ccc(N)cc1",
    "assay-endpoint": "activity change, negative = inhibition",
    "value-observed": "inactive"
  },
  {
    "molecule": "COc1cc(CNC(=O)CCCC/C=C/C(C)C)ccc1O",
    "assay-endpoint": "activity change, negative = inhibition",
    "value-observed": "inactive"
  },
  {
    "molecule": "CCc1cccc(C)c1N(C(=O)CS(=O)(=O)O)C(C)COC (stereo not given)",
    "assay-endpoint": "activity change, negative = inhibition",
    "value-observed": "inactive"
  }
]

// field: activity change, negative = inhibition; key: `On1nnc2ccccc21` ; value = inactive

// field: activity change, negative = inhibition; key: `C/C=C(\C)C=O` ; value = inactive

// field: activity change, negative = inhibition; key: `CCOC(=O)[C@H](C)O` ; value = inactive

// field: activity change, negative = inhibition; key: `Clc1cc(Cl)c(-c2c(Cl)c(Cl)cc(Cl)c2Cl)cc1Cl` ; value = inactive

// field: activity change, negative = inhibition; key: CC(C(=O)O)c1ccc2c(c1)CC(=O)c1ccccc1S2 (stereo not given) ; value = inactive

// field: activity change, negative = inhibition; key: CC12CCCC=C1C(=O)OC2=O (stereo not given) ; value = inactive

// field: activity change, negative = inhibition; key: `C=Cc1ccccc1C=C` ; value = inactive

// field: activity change, negative = inhibition; key: `CC/C=C\CCCCO` ; value = inactive

// field: activity change, negative = inhibition; key: `CCCCCCCCCCCCCCCCOP(=O)([O-])OCC[N+](C)(C)C` ; value = inactive

// field: activity change, negative = inhibition; key: `O=CNNC=O` ; value = inactive

###

# assay-explanation: Nuclear factor erythroid 2-related factor 2/antioxidant responsive element (Nrf2/ARE) small molecule agonists: qHTS cell viability counter screen in human keratinocytes (AID 1919968); note: % is set by controls: 0 for no effect and ±100 for the full control effect; nearly all actives have a fitted effect of over 55% in size
# condition-context: KeratinoSens HaCaT ARE cells viability, CellTiter-Fluor, 24 h; series mostly up to 92.4 µM
Inconclusive results are not listed. Active and inactive are the calls of the source. Calls come from the whole dose curve; as a rule, active = well fitted cell-killing curve with a large enough effect in the repeat runs; inconclusive = weak or mixed curves, or effect the other way; inactive = flat fitted curve, though single readings scatter.
Response enum: label 1 = active, label 0 = inactive

[
  {
    "molecule": "CC(C)Nc1nc(N)nc(Cl)n1",
    "group": "label 0"
  }
]

Next item in the queue.
Recorded test outcome, item `CN=C(NC#N)NCCSCc1csc(N=C(N)N)n1`
label 0
